Assay: Part B clinical DDI: plasma pharmacokinetics of daprodustat and predominant metabolites with or without steady-state trimethoprim
Format: in vivo, human
Settings: both sexes, human, oral; reference: 25 mg daprodustat alone, plasma; geometric LS mean (%CV); read-out: AUC0-∞, Reference
property_name: AUC(0-inf) (ng·h/mL)
Kindly provide the numeric value in ng·h/mL only, without the unit symbol.

molecule O=C(O)CNC(=O)C1C(=O)N(C2CCCCC2)C(=O)N(C2CCCCC2)C1=O , AUC(0-inf) observed: 937

====

Assay: Part B clinical DDI: plasma pharmacokinetics of daprodustat and predominant metabolites with or without steady-state trimethoprim
Assay type: in vivo, human
Details: both sexes, human, oral; test: two 100 mg trimethoprim tablets (steady state) + 25 mg daprodustat, plasma; geometric LS mean (%CV); read-out: Cmax, Test
property_name: Cmax (ng/mL)
Kindly provide the numeric value in ng/mL only, without the unit symbol.

compound O=C(O)CNC(=O)C1C(=O)N(C2CCCCC2)C(=O)N(C2CCCCC2)C1=O , Cmax observed: 560
